test-system: Neuronal acetylcholine receptor; alpha3/beta4 (Rattus norvegicus, UniProt P04757+P12392)
Sequence (P04757 whole entry): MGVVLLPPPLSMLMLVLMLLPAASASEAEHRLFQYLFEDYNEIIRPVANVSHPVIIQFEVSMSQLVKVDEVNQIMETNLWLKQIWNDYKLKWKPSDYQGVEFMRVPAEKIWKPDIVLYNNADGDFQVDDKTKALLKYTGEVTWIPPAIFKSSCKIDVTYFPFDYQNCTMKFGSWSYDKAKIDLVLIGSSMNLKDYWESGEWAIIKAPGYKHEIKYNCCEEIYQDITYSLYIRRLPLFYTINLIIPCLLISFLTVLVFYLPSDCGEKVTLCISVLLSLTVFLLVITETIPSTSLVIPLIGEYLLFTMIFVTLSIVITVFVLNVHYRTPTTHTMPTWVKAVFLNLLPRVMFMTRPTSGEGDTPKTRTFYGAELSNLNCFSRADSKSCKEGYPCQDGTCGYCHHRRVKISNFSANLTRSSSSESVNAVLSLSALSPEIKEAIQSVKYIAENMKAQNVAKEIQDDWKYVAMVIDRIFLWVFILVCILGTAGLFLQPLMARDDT
Sequence (P12392 whole entry): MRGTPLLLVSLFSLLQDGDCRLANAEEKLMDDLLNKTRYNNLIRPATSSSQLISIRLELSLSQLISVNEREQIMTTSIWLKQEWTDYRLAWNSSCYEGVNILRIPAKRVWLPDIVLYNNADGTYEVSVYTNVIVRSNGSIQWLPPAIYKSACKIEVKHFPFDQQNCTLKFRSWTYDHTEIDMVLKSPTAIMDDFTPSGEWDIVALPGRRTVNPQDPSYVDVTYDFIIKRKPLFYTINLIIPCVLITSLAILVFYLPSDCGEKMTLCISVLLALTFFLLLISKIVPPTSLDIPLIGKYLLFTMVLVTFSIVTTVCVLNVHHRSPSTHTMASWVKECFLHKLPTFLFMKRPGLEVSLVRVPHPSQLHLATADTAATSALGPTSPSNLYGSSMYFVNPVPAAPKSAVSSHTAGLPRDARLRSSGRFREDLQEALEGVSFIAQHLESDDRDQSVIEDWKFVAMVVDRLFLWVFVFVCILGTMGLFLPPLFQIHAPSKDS
procedure-details: Agonist activity at rat alpha3beta4 nAChR expressed in Xenopus laevis oocytes
reported-endpoint: pEC50
// field semantics: pEC50 = negative decimal log of concentration (mol/L)

// fetch pEC50 given entry c1cncc([C@@H]2CCCN2)c1 [NORNICOTINE]
3.21

====

test-system: Muscarinic acetylcholine receptor M1 (Homo sapiens)
Sequence (P11229 whole entry): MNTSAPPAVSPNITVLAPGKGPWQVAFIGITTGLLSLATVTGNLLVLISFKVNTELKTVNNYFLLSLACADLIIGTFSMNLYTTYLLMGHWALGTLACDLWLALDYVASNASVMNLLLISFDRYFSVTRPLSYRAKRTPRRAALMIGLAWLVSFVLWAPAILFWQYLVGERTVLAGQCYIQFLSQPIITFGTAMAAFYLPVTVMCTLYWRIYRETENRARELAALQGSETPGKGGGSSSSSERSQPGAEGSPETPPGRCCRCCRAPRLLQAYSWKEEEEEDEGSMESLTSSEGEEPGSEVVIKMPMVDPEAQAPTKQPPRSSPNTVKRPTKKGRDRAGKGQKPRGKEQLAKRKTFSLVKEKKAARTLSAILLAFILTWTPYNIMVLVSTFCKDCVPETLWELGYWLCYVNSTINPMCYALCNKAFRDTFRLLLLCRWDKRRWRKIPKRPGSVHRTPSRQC
reported-endpoint: IC50

Indicate the recorded IC50 value for this molecule: "CN(C)CC/C=C/c1cccnc1"
> 10 µM

====

test-system: Neuronal acetylcholine receptor; alpha4/beta2 (Rattus norvegicus, UniProt P09483+P12390)
Sequence (P09483 whole entry): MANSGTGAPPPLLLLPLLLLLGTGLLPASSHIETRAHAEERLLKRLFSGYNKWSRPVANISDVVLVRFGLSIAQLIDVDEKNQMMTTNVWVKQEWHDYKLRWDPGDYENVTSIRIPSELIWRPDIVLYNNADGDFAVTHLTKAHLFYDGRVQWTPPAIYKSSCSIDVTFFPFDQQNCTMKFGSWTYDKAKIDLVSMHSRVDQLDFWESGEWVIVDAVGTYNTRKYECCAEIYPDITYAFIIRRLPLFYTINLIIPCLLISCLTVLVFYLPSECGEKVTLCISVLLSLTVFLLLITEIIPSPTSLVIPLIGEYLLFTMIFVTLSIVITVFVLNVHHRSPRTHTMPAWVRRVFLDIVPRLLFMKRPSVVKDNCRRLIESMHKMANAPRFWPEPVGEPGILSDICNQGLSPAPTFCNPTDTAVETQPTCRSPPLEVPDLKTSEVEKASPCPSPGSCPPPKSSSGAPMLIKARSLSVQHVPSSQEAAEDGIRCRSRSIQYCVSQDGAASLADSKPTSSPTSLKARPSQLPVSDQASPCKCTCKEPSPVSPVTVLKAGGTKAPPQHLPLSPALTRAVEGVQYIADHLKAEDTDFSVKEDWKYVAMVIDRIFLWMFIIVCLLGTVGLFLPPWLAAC
Sequence (P12390 whole entry): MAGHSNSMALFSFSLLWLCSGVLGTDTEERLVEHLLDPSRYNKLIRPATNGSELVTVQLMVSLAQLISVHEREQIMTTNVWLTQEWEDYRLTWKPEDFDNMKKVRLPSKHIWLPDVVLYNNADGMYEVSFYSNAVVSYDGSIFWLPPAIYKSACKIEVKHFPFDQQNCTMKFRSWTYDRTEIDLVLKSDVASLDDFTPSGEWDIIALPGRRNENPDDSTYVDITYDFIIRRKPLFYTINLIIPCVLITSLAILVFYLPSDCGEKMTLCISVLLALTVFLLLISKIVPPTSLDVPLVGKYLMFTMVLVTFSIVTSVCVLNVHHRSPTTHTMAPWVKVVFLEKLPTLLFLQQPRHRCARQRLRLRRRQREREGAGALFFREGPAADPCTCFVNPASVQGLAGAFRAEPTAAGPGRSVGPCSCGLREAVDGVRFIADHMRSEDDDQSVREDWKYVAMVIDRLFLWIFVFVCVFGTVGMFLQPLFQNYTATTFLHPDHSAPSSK
reported-endpoint: pEC50
Scale for pEC50: -log10 of concentration given in mol/L; no unit attached.

Output pEC50 of c1cncc(C2=NCCCC2)c1 [ANABASEINE]
5.38

Just for reference, ChEMBL document CHEMBL4673260 is where these values come from.
